Below: a set of entries, each annotated with reported CC50.
assay: Cytotoxicity against human PBMC cells assessed as reduction in cell viability by MTT assay; assay type: cell-based
Dear colleague, please return just the value in µM, with no unit written.

item_smiles	CC50 [µM]
Cc1c(C(=O)C(=O)Nc2nc3ccccc3[nH]2)c(C)n(C)c1C(=O)Nc1ccc(F)c(F)c1	90

Proceeding to the next molecule to report its CC50.
What value of CC50 has been reported for the following molecule? C#CCNC(=O)C(=O)c1cc(C(=O)Nc2ccc(F)c(F)c2)n(C)c1 57.9

----------
Parameter CC50: see the listing below.
test: Cytotoxicity against human HepG2 cells assessed as reduction in cell viability by MTT assay; format: cell-based

Consider the worked cases shown below.
item_smiles	readout_value
C=CCNC(=O)C(=O)c1cc(C(=O)Nc2ccc(F)c(F)c2)n(C)c1	> 100 µM
C=C1[C@H](CO)[C@@H](O)C[C@@H]1n1cnc2c(=O)[nH]c(N)nc21	> 100 µM

// switching to the query molecule
Report CC50 for Cn1cc(C(=O)C(=O)NCc2ccccc2)cc1C(=O)Nc1ccc(F)c(F)c1 please. > 100 µM
